- Test system: Norovirus
- assay-overview: Antiviral activity against HG23 cells harboring Norovirus replicon assessed as decrease in viral RNA level measured after 48 hrs by qRT-PCR analysis
- Type: functional, cell-based
- applied-conditions: HG23, 48 h
property-measured: pEC50
Give bare numbers, as −log10 of the molar value.

-- ask Name the reported pEC50 value associated with the compound O=C[C@@H]1CCC(=O)NCCCCn2cc(nn2)C[C@H](NC(=O)OCc2ccccc2)C(=O)N[C@@H](CC2CCCCC2)C(=O)N1
-- reply 4.52

-- ask And the next one, CC(C)C[C@@H]1NC(=O)[C@@H](NC(=O)OCc2ccccc2)CCCn2cc(nn2)CNC(=O)CC[C@@H](C=O)NC1=O ?
-- reply 5.07

-- ask And the next one, O=C[C@@H]1CCC(=O)NCCn2cc(nn2)C[C@H](NC(=O)OCc2ccccc2)C(=O)N[C@@H](CC2CCCCC2)C(=O)N1 ?
-- reply 4.59

Moving on to another compound below.
-- ask Name the reported pEC50 value associated with the compound O=C[C@@H]1CCC(=O)NCCCCCCn2cc(nn2)C[C@H](NC(=O)OCc2ccccc2)C(=O)N[C@@H](CC2CCCCC2)C(=O)N1
-- reply 4.05

====

Could you please report measured pEC50 for the items listed next?
- System: Norovirus
- assay-overview: Antiviral activity against HG23 cells harboring Norovirus replicon assessed as decrease in viral RNA level measured after 48 hrs by qRT-PCR analysis
- Format: functional, cell-based
- applied-conditions: HG23, 48 h
Give bare numbers, as −log10 of the molar value.

Recorded results for 3 compounds are shown here.
-- ask Missing value: pEC50, Norovirus, entry CC(C)C[C@@H]1NC(=O)[C@@H](NC(=O)OCc2ccccc2)Cc2cn(nn2)CCNC(=O)CC[C@@H](C=O)NC1=O . Fill in?
-- reply 4.27

-- ask And the next one, CC(C)C[C@@H]1NC(=O)[C@@H](NC(=O)OCc2ccccc2)Cc2cn(nn2)CCCCCCNC(=O)CC[C@@H](C=O)NC1=O ?
-- reply 4.38

-- ask And the next one, O=C[C@@H]1CCC(=O)NCCCCCn2cc(nn2)C[C@H](NC(=O)OCc2ccccc2)C(=O)N[C@@H](CC2CCCCC2)C(=O)N1 ?
-- reply 5.42

Further cases:
-- ask Missing value: pEC50, Norovirus, entry CC(C)C[C@@H]1NC(=O)[C@@H](NC(=O)OCc2ccccc2)Cc2cn(nn2)CCCCCNC(=O)CC[C@@H](C=O)NC1=O . Fill in?
-- reply 5.21

Numbers sourced from ChEMBL document CHEMBL3826964.
